The reported numbers originate from patent US20260297176.

Quick reference for Kd among some binders
Tested system: T1, human IL-11 (human)
T1 chain: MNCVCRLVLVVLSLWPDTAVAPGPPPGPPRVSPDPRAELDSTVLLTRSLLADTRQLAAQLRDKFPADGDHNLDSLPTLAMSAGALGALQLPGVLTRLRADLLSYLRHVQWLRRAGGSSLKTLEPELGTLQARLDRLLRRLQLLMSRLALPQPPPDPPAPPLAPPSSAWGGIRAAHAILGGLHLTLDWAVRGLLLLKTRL
Method notes: SPR 25C
Numeric only. Scale: pM

GVH5 (D54E)/CVL3 + YTE (antibody, V domains shown) VH: QITLKESGPTLVKPTQTLTLTCTFSGFSLSTSGMVVGWIRQPPGKALEWLAAIDWEGEKYYSPSLKSRLTITKDTSKNQVVLTMTNMDPVDTATYYCARSGNYFEYWGQGTLVTVSS VL: DNQMTQSPSSLSASVGDRVTITCRTSEDIYNALAWYQQKPGKAPQLLIYDANRLHIGVPDRFSGSGSGTDFTLTISSLQAEDVAVYYCQQYYDYPNTFGQGTKLEIK : 9.89
CVH3 (D54E)/CVL3 (antibody, V domains shown) VH: QVQLQESGPGLVKPSQTLSLTCSFSGFSLSTSGMVVSWIRQPPGKALEWLAAIDWEGEKYYNPSLKSRLTVTKDTSNTQVVLTMTNMDPVDTATYYCARSGNYFEYWGQGTLVTVSS VL: DNQMTQSPSSLSASVGDRVTITCRTSEDIYNALAWYQQKPGKAPQLLIYDANRLHIGVPDRFSGSGSGTDFTLTISSLQAEDVAVYYCQQYYDYPNTFGQGTKLEIK : 5.01
GVH5 (D54E)/GVL5 (antibody, V domains shown) VH: QITLKESGPTLVKPTQTLTLTCTFSGFSLSTSGMVVGWIRQPPGKALEWLAAIDWEGEKYYSPSLKSRLTITKDTSKNQVVLTMTNMDPVDTATYYCARSGNYFEYWGQGTLVTVSS VL: DIQMTQSPSSLSASVGDRVTITCRTSEDIYNALAWYQQKPGKAPQLLIYDANRLHIGVPSRFSGSGSGTDFTLTISSLQPEDFATYYCQQYYDYPNTFGQGTKLEIK : 96.6

Ask: I would be grateful if you could share the reported Kd for GVH5 (D54E)/CVL3 (antibody, V domains shown) VH: QITLKESGPTLVKPTQTLTLTCTFSGFSLSTSGMVVGWIRQPPGKALEWLAAIDWEGEKYYSPSLKSRLTITKDTSKNQVVLTMTNMDPVDTATYYCARSGNYFEYWGQGTLVTVSS VL: DNQMTQSPSSLSASVGDRVTITCRTSEDIYNALAWYQQKPGKAPQLLIYDANRLHIGVPDRFSGSGSGTDFTLTISSLQAEDVAVYYCQQYYDYPNTFGQGTKLEIK .
Result: 18.1

Ask: I would be grateful if you could share the reported Kd for CVH3 (D54E)/CVL3 + YTE (antibody, V domains shown) VH: QVQLQESGPGLVKPSQTLSLTCSFSGFSLSTSGMVVSWIRQPPGKALEWLAAIDWEGEKYYNPSLKSRLTVTKDTSNTQVVLTMTNMDPVDTATYYCARSGNYFEYWGQGTLVTVSS VL: DNQMTQSPSSLSASVGDRVTITCRTSEDIYNALAWYQQKPGKAPQLLIYDANRLHIGVPDRFSGSGSGTDFTLTISSLQAEDVAVYYCQQYYDYPNTFGQGTKLEIK .
Result: 1.42

Ask: I would be grateful if you could share the reported Kd for GVH5 (D54E)/GVL5 + YTE (antibody, V domains shown) VH: QITLKESGPTLVKPTQTLTLTCTFSGFSLSTSGMVVGWIRQPPGKALEWLAAIDWEGEKYYSPSLKSRLTITKDTSKNQVVLTMTNMDPVDTATYYCARSGNYFEYWGQGTLVTVSS VL: DIQMTQSPSSLSASVGDRVTITCRTSEDIYNALAWYQQKPGKAPQLLIYDANRLHIGVPSRFSGSGSGTDFTLTISSLQPEDFATYYCQQYYDYPNTFGQGTKLEIK .
Result: 79.2

Ask: I would be grateful if you could share the reported Kd for CVH4 (D54E)/CVL3 (antibody, V domains shown) VH: QVQLQESGPGLVKPSQTLSLTCSFSGFSLSTSGMVVSWIRQPPGKALEWLAAIDWEGEKYYNPSLKSRLTVTKDTSKNQVVLTMTNMDPVDTATYYCARSGNYFEYWGQGTLVTVSS VL: DNQMTQSPSSLSASVGDRVTITCRTSEDIYNALAWYQQKPGKAPQLLIYDANRLHIGVPDRFSGSGSGTDFTLTISSLQAEDVAVYYCQQYYDYPNTFGQGTKLEIK .
Result: 7.48
